# MEASUREMENT_PROTOCOL: gradient 5% acetonitrile 3 min, to 50% in 2 min, to 85% in 15 min, held 3 min, 100 µL/min
# STATED_CONDITIONS: column: Zorbax Extend-C18 2.1 x 50 mm; eluents: water / acetonitrile, 0.1% formic acid
Entries are grouped by RP-LC retention time into these classes: low bracket (below 700 s), middle bracket (700 s to below 900 s), high bracket (900 s or more)

>>> classification("Cc1ccc(-c2coc(-c3cccc(NS(=O)(=O)c4ccc(Cl)s4)c3)n2)cc1")
"high bracket"
>>> classification("COCCCNC(=O)N1CCCC1c1nc(-c2cccc(Cl)c2)no1 (configuration not stated)")
"middle bracket"
>>> classification("COC(=O)c1cccc(NC(=O)NC(C(=O)N2CCc3ccccc32)C(C)C)c1 (configuration not stated)")
"low bracket"
>>> classification("COC(=O)c1ccc2c(=O)n(-c3ccc(Cl)cc3)c(N3CCCC3)nc2c1")
"high bracket"
>>> classification("Cc1nc(Nc2ncc3c(n2)CC(c2ccc(F)cc2)CC3=O)nc2c(C)cccc12 (configuration not stated)")
"middle bracket"
>>> classification("COc1ccc(C(=O)Nc2ccc3c(c2)N(C(=O)C2CCCO2)CC3)c(OC)c1OC (configuration not stated)")
"low bracket"
>>> classification("Fc1cccc(-c2noc(Cc3nc(-c4ccc(Cl)cc4)cs3)n2)c1")
"high bracket"
>>> classification("Cn1c(=O)sc2cc(S(=O)(=O)N3CCC(C(=O)NC4CCCC4)CC3)ccc21")
"middle bracket"
>>> classification("Cc1ccc(CNC(=O)Nc2cccc(-c3ccc(N4CCC(C)CC4)nn3)c2)cc1")
"middle bracket"
>>> classification("O=C(Cn1nc2c(Oc3ccc(F)cc3)nccn2c1=O)NCc1ccccc1")
"middle bracket"
>>> classification("Cc1cc(C(=O)N2CCC[C@H]2c2nc(-c3ccccc3)n[nH]2)nn1C")
"low bracket"
>>> classification("O=C(Cn1c(=O)cc(C(=O)N2CCCCC2)c2ccccc21)NC1CCCCC1")
"middle bracket"
>>> classification("O=C(c1cccnn1)N1C[C@@H](COCC2CC2)[C@H](c2ccncc2)C1")
"low bracket"
>>> classification("CCc1ccc(C2=C(C)C(N3CCCN(C(=O)NC4CCCC4)CC3)=NS2(=O)=O)cc1")
"middle bracket"
>>> classification("Cc1ccn2cc(-c3ccc(NC(=O)c4ccc(Cl)cc4)cc3)nc2n1")
"low bracket"
>>> classification("CCCN1CCN(c2cc(C(=O)O)c3cc(NS(=O)(=O)c4ccc(C)cc4C)ccc3n2)CC1")
"high bracket"
>>> classification("O=C(Nc1nnc(C2CC(=O)N(c3ccc(Cl)cc3)C2)o1)c1cccc(F)c1 (configuration not stated)")
"middle bracket"
>>> classification("Cc1ccc(-c2noc(C3CCCN3C(=O)C3CCN(S(=O)(=O)c4ccc(C)cc4)CC3)n2)cc1 (configuration not stated)")
"high bracket"
>>> classification("COc1cccc(-c2csc(-c3nnn(-c4ccc(Cl)cc4)c3N)n2)c1")
"high bracket"
>>> classification("O=C(NCCN1CCN(C(=O)c2ccc(Br)cc2)CC1)C(=O)NCc1ccco1")
"low bracket"
>>> classification("COc1ccc(CC(=O)Nc2ccc3c(c2)CCC(=O)N3C)c(Cl)c1")
"middle bracket"
>>> classification("COc1ccc(Cl)cc1S(=O)(=O)N1CCCC(C(=O)Nc2ccc(C)c(C)c2)C1 (configuration not stated)")
"high bracket"
